# procedure.text: chemical genetic growth profiling, strain panel (AID 1159580);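 further: tested at 20 µM; growth read once vehicle control cultures reached saturation at 30 °C; 1 = growth at the plate median or of vehicle wells; lower values mean less growth of the strain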
# details: S. cerevisiae deletion strains, growth OD, locus YBR023C, strain chs3
In all, about 5,500 compounds went through this assay and about 2,000 (36%) were called active. About 18% were inconclusive and are not listed. No stated cut-off is given here; in the data, active means normalized growth mostly below about 0.91 (no sharp cut-off); inconclusive means no clear call, values can overlap the other calls; inactive means mostly above about 0.92. The list shows a part of the results.
Return exactly one item of 1 (yes) for active, 0 (no) for inactive

compound: O=C(OC[C@H]1O[C@H](OC(=O)c2cc(O)c(O)c(OC(=O)c3cc(O)c(O)c(O)c3)c2)[C@H](OC(=O)c2cc(O)c(O)c(OC(=O)c3cc(O)c(O)c(O)c3)c2)[C@@H](OC(=O)c2cc(O)c(O)c(OC(=O)c3cc(O)c(O)c(O)c3)c2)[C@@H]1OC(=O)c1cc(O)c(O)c(OC(=O)c2cc(O)c(O)c(O)c2)c1)c1cc(O)c(O)c(OC(=O)c2cc(O)c(O)c(O)c2)c1
class.label: 1 (yes)

Q: Which outcome did this test record for the compound CO[C@H]1C[C@H](O[C@H]2[C@H](C)[C@@H](OC3O[C@H](C)C[C@H](N(C)C)[C@H]3OC(C)=O)[C@@H](C)C[C@]3(CO3)C(=O)[C@H](C)[C@@H](OC(C)=O)[C@@H](C)[C@@H](C)OC(=O)[C@@H]2C)O[C@@H](C)[C@@H]1OC(C)=O (some centres not stated) ?
A: 0 (no)
